Below, each entry is listed with its recorded half-life.
- PROTOCOL NOTES: Half life in dog
- Assay type: ADME, organism-based, Canis lupus familiaris
- EXPERIMENTAL PARAMETERS: in vivo
VALUE KIND: half-life (h)

>  <MOLECULE>
C[C@@H]1CN(Cc2ccc(F)cc2)[C@@H](C)CN1C(=O)COc1ccc(Cl)cc1C(=O)O

>  <VALUE>
11

$$$$
>  <MOLECULE>
C[C@@H]1CN(Cc2ccc(F)cc2)[C@@H](C)CN1C(=O)COc1ccc(Cl)cc1C(=O)CCC(=O)O

>  <VALUE>
5.8

$$$$
>  <MOLECULE>
C[C@@H]1CN(Cc2ccc(F)cc2)CCN1C(=O)COc1ccc(Cl)cc1NC(N)=O [BX 471 FREE BASE]

>  <VALUE>
4

$$$$
>  <MOLECULE>
C[C@@H]1CN(Cc2ccc(F)cc2)[C@@H](C)CN1C(=O)COc1ccc(Cl)cc1CS(=O)(=O)O

>  <VALUE>
21

$$$$
>  <MOLECULE>
C[C@@H]1CN(Cc2ccc(F)cc2)[C@@H](C)CN1C(=O)COc1ccc(Cl)cc1CC(=O)O

>  <VALUE>
11

$$$$
